system: SK-MEL-2; test: NCI tumour cell line growth inhibition, 48 h
Counter-ions that a name gives are not always drawn. Active and inactive are the calls of the source. No stated cut-off is given here; in the data, active = GI50 up to about 1.1 µM and inactive = higher.
One label from this list, please: active, inactive

Lab log entry: Cc1ccc(C(=O)Oc2ccccc2)cc1/N=N/N(C)C — outcome as called in the assay?
inactive

What classification did CC1OC(OC2C(O[C@H]3CC[C@@H]4C(=CC[C@@H]5[C@@]4(C)C(=O)C[C@]4(C)[C@@H]([C@H](C)CC[C@@H](O)C(C)(C)O)CC[C@@]54C)C3(C)C)OC(CO)C(O)C2O)C(O)C(O)C1O (some centres undefined) end up with in this test?
inactive

Called result for Brc1c2nc3ccccc3nc2n2ccc3ccccc3c12
inactive

Which result was noted for this molecule in the test: CC1(C)OC(=O)C(c2cccs2)C(=O)O1
inactive

Tell me the recorded outcome of this test for CNC(C)Cc1ccccc1OC (centres undefined) [METHOXYPHENAMINE HYDROCHLORIDE] .
inactive

Outcome? Cc1ccc(S(=O)(=O)NC2C(=O)c3ccccc3C(=O)C2n2cnc3ccccc32)cc1 (centres undefined)
inactive

Could you please tell me the result logged for Cc1ccc2c(O)cc(-c3csc4ccccc34)nc2n1 in this assay?
active

# outcome recorded in this test, key = CO[C@H](c1ccccc1)[C@H](O)[C@](O)(c1ccccc1)P(=O)(OC)OC
inactive

Which outcome was entered for the molecule O=c1oc2ccc(Cl)cc2cc1-c1cn2ccccc2n1 in this test?
inactive
